measured-on: Acetylcholinesterase (Rattus norvegicus, UniProt P37136)
Sequence (P37136 whole entry): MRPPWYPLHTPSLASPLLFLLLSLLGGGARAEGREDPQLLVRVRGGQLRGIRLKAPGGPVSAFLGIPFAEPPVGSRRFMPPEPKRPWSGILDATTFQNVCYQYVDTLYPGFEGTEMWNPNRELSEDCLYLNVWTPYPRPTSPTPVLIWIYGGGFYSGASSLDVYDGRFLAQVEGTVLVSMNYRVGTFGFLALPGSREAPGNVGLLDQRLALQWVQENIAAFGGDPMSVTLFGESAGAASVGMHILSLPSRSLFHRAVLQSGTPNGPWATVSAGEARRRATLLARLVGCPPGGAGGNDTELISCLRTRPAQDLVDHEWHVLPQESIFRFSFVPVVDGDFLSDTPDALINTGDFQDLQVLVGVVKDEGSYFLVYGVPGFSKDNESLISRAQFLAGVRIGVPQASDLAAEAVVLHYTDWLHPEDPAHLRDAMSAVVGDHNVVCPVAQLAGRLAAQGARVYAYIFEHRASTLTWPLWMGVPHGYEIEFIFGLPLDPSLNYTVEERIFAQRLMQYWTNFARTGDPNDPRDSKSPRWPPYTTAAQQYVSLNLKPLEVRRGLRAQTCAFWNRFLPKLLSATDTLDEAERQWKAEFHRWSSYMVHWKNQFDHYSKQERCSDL
pIC50: −log10 of the molar value.
Label met when pIC50 is at or above 6; otherwise label not met.

Example entries begin here.
CCN(CCCCCCOc1ccc(C(=O)/C=C/c2ccc(N(C)C)cc2)c(O)c1)Cc1ccccc1N(C)C ... met
COc1ccc(C(=O)/C=C/c2ccc(N(C)C)cc2)c(O)c1 ... not met
CCN(CCCOc1ccc(C(=O)/C=C/c2ccc(N(C)C)cc2)c(O)c1)Cc1ccccc1N(C)C ... met
CCN(CCCOc1ccc(C(=O)/C=C/c2ccc(N(C)C)cc2)c(O)c1)Cc1ccccc1OC ... met
CCN(CC)CCCOc1ccc(C(=O)/C=C/c2ccc(N(C)C)cc2)c(O)c1 ... not met
COc1ccc(/C=C/C(=O)c2ccc(N(C)C)cc2O)cc1 ... not met

Query compound follows.
Does the compound CCN(CCCCCCOc1ccc(C(=O)/C=C/c2ccc(N(C)C)cc2)c(O)c1)Cc1ccccc1OC have recorded pIC50 that is 6 or more?
met

Hello, the source for this data is ChEMBL document CHEMBL4813970, in case you need it.
